Measured values drawn from patent US20230192896A1 for this set.

Readings of pKd for the listed binders
Biological target: T1, FX zymogen (UniProt P00742 41-179; P00742 183-488)
T1 chain 1: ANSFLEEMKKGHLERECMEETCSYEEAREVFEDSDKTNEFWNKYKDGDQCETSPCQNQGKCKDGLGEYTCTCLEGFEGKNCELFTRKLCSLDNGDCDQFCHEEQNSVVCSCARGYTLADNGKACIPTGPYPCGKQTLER
T1 chain 2: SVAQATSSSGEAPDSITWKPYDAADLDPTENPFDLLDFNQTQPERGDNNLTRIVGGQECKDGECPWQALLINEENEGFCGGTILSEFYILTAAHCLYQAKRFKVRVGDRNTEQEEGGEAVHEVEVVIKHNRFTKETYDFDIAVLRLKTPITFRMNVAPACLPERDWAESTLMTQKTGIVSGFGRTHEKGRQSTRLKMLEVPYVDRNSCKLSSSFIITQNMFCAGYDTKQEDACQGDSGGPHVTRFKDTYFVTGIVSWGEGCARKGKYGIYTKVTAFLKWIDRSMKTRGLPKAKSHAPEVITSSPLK
Experiment: BLI
Kindly note that pKd refers to -log10 of the concentration in mol/L and answer with the value alone.

- BINDER: "BIIB-12-928 (antibody, V domains shown) VH: QVQLVEFGVGVVQPGRSLRLSCAASGFTFSSYGMHWVRQAPGKGLEWVAVISYDGSNKYYADSVKGRFTISRDNSKNTLYLQMNSLRAEDTAVYYCAKGGTYLDTWGQGTLVTVSS VL: EIVLTQSPGTLSLSPGERATLSCRASQSVRSSYLAWYQQKPGQAPRLLIYGASSRATGIPDRFSGSGSGTDFTLTISRLEPEDFAVYYCQQYVRFPLTFGGGTKVEIK"
  pKd: 7.64

Shifting focus to the binder that follows.
# input Specify pKd for BIIB-12-1319 (antibody, V domains shown) VH: QVQLVESGGGVVQPGRSLRLSCAASGFTFSSYGMHWVRQAPGKGLEWVAVISYDGSNKYYADSVKGRFTISRDNSKNTLYLQMNSLRAEDTAVYYCARTGYHRSVYYWGQGTLVTVSS VL: EIVMTQSPATLSVSPGERATLSCRASQSVSSNLAWYQQKPGQAPRLLIYGASTRATGIPARFSGSGSGTEFTLTISSLQSEDFAVYYCQQASNFPPTFGGGTKVEI and stop.
# output 7.51
